Test: SK-BR-3 cell growth inhibitors, pilot screen, 24 h, human (AID 572);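 note: compound exposure lasted between 18 and 24 h rather than exactly 24 h; 100% = carrier-treated control wells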
Conditions: SK-BR-3 viability, CellTiter-Glo luminescence, at 10 µM, stronger effect = lower value
Param label: returns class 1 when viability < 90%, returns class 0 otherwise, including exact equality.

>>> df
                                   compound  qualitative_label
0  O=C1c2ccccc2NC(c2cccc(F)c2)N1Cc1ccco1 (stereo unspecified)            class 1
1    c1ccc(-c2cc(CSc3nc4ccccc4[nH]3)on2)cc1            class 0
2  Cn1c(CN2CCCCC2)nc2cc(NC(=O)c3ccccc3)ccc21            class 1
3         O=C(Cn1c(NCCO)nc2ccccc21)c1ccccc1            class 0
4  O=C(CSc1nnc(-c2cccs2)o1)NCC1CN(Cc2ccccc2)CCO1 (stereo unspecified)            class 0
5  C[C@H](CCC(=O)O)[C@H]1CC[C@H]2[C@@H]3C(=O)C[C@@H]4CC(=O)CC[C@]4(C)[C@H]3CC(=O)[C@]12C            class 0
6          COc1ccc(CC(=O)Nc2cc(Cl)ccc2O)cc1            class 0
7  CC1CN(CC(O)COc2ccccc2C(C)(C)C)CC(C)O1 (stereo unspecified)            class 0
8  CC(C(=O)O)c1ccc(-c2ccccc2)c(F)c1 (stereo unspecified)            class 0
9              COc1cc(C(N)=O)ccc1OCc1ccccc1            class 1

###

Reported viability by item:
Assay: reducers of endogenous Her2 protein level, primary screen, SKBR3 breast tumor cells, AlphaScreen, ATP viability (AID 461);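 note: percent of carrier control wells set as 100% viability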
Conditions: 18-24 h, measured here: SKBR3 viability, ATP luminescence, at 10 µM
ASSAY_METRIC: viability (%)

>>> df
                                    compound  test_value
 0  COCCN1CN(S(=O)(=O)c2ccccc2)c2nc3ccccc3nc21         101
 1  CCCCCC1CC(CC#CCN2CCOCC2)C(=O)O1 (configuration not stated)          86
 2                    O=C(O)CSc1ccc2ccccc2n1        95.5
 3  Cc1ccc(NC(=O)COS(=O)c2ccc(C)cc2)cc1 (configuration not stated)          97
 4  COCCn1c(CN2CCN(c3ccccc3F)CC2)nc2c1c(=O)n(C)c(=O)n2C         105
 5  CCn1c(C(=O)N2CCCC(C(=O)O)C2)cc2sccc21 (configuration not stated)         103
 6       COc1ccc(-c2cc(N3CCCC3)n3ncnc3n2)cc1          86
 7            Cn1c(NCc2cccc(Br)c2)nc2ccccc21          87
 8           ON=C1/C(=N\O)CC2(C/C1=N/O)OCCO2          89
 9  O=C(NC1CCCCCC1)C1CCCN(S(=O)(=O)c2cccs2)C1 (configuration not stated)          90
10                  CCn1nnnc1SCC(=O)N1CCOCC1         116
11  Cc1cc(C)cc(NC(=O)c2nnn(Cc3cc(C)ccc3C)c2N)c1         111

Each recorded value in this set is attributed to PubChem BioAssay.
